tested on: Podosphaera fuliginea; assay: Antifungal activity against Podosphaera fuliginea isolate N-1 in cucumber plants by leaf disc method; format: functional, organism-based
Reported EC50 values follow for various compounds
Reply numerically in ppm, unit not repeated.

Fill in reported EC50 for this entry: CCCCc1c(C)nc(N(C)C)nc1O [DIMETHIRIMOL] 6.6

More entries:
Quickly give me recorded EC50 for COC(=O)NC(=S)Nc1ccccc1NC(=S)NC(=O)OC [THIOPHANATE METHYL] 680

Determine from records and report EC50 for Cc1ccc2nc3sc(=O)sc3nc2c1 [CHINOMETHIONAT] 4.83

----------
test system: Podosphaera fuliginea; experiment: Antifungal activity against Podosphaera fuliginea isolate S-2 in cucumber plants by leaf disc method; assay type: functional, organism-based
measurement.type: EC50 (ppm)
Report as a plain number; the unit ppm is understood.

Please supply the value of reported EC50 for the item Cc1ccc2nc3sc(=O)sc3nc2c1 4.95

Write down EC50 measured for item CCCCc1c(C)nc(N(C)C)nc1O 4.64

Tell me EC50 reported for COC(=O)NC(=S)Nc1ccccc1NC(=S)NC(=O)OC [THIOPHANATE METHYL] 479
